assay: Solubility test at pH=4 from phosphate buffer pH 6 0.1M, by HPLC; format: physicochemical; details: second figure of the S/pH cell; pH noted for the solubility sample
Where a name gives a salt, the structure may show the parent alone.
The threshold is inclusive: pH (of the solubility sample) of exactly 5 counts as Satisfied; values below receive Not satisfied.

Use the examples below as a reference point.
In [3]: df
Out[3]:
                                   compound  class_assignment
0  CCCCc1cc2ccccn2c1C(=O)c1ccc(CCCN(CCOC)CCOC)cc1 [compound 41, oxalate]     Not satisfied
1  CCCc1cc2ccccn2c1C(=O)c1ccc(CCCCN(CC)CCC)cc1 [compound 32, hydrochloride]         Satisfied
2  CCCc1cc2ccccn2c1C(=O)c1ccc(CCCCN(CC)CC)cc1.Cl         Satisfied
3  CCCCc1cc2ccc(CC)cn2c1C(=O)c1ccc(CCCN(CCC)CCC)cc1 [compound 44, hydrochloride]         Satisfied
4  CCCCc1cc2ccccn2c1C(=O)c1ccc(CCCN(CCC)CCCC)cc1 [compound 33, oxalate]         Satisfied
5  CCCCc1cc2ccccn2c1C(=O)c1ccc(CCCN2C[C@@H](C)N[C@@H](C)C2)cc1 [compound 39, hydrochloride]     Not satisfied
6  CCCN(CC)CCCc1ccc(C(=O)c2c(C(C)C)cc3ccccn23)cc1 [compound 25, hydrochloride]         Satisfied
7  CCCN(CCC)CCCc1ccc(C(=O)c2c(CC)cc3ccccn23)cc1 [compound 8, hydrochloride]         Satisfied
8  CCCCc1cc2ccc(C)cn2c1C(=O)c1ccc(CCCN(CCC)CCC)cc1 [compound 43, hydrochloride]         Satisfied
9  CCc1cc2ccccn2c1C(=O)c1ccc(CCCN(CC)CC)cc1.O=C(O)C(=O)O     Not satisfied

// query # check: pH (of the solubility sample) of `CCCCc1cc2ccccn2c1C(=O)c1ccc(CCCN(CC)CC)cc1.Cl` is greater than or equal to 5
// result Satisfied

// query Hi team, for `CCc1cc2ccccn2c1C(=O)c1ccc(CCCCN(CC)CC)cc1.O=C(O)C(=O)O` , is the recorded pH (of the solubility sample) at or above 5?
// result Not satisfied

// query hey, is pH (of the solubility sample) for this one >= 5? CCCN(CC)CCCCc1ccc(C(=O)c2c(CC)cc3ccccn23)cc1 [compound 31, oxalate]
// result Not satisfied

// query Identify whether the reported pH (of the solubility sample) of the following compound is 5 or greater: `CCCc1cc2ccccn2c1C(=O)c1ccc(CCCN(CC)CC)cc1.Cl`
// result Satisfied

// query Please check the record CCCCc1cc2ccccn2c1C(=O)c1ccc(CCCN(CC)CCC)cc1 [compound 23, hydrochloride] and state if its pH (of the solubility sample) is at or above 5.
// result Satisfied

* * *

assay: Solubility test at pH=4 from phosphate buffer pH 6 0.1M, by HPLC; format: physicochemical; settings: aqueous buffer, thermodynamic from solid; phosphate buffer pH 6 0.1M, HPLC; first figure of the S/pH cell, the pH of the sample is the second
Structures can show the parent of a compound that is named as a salt.
Label TRUE for high-side solubility at 5 min (at or above 2000 µg/mL) and FALSE for low-side solubility at 5 min (below it).

>>> print(df.to_string())
                                   compound  class_assignment
0  CCCN(CCC)CCCCc1ccc(C(=O)c2c(C(C)C)cc3ccccn23)cc1 [compound 14, oxalate]              TRUE
1  CCCN(CC)CCCCc1ccc(C(=O)c2c(C)cc3ccccn23)cc1 [compound 28, hydrochloride]             FALSE
2  CCCCc1cc2ccccn2c1C(=O)c1ccc(CCCN(CC)CC)cc1.Cl              TRUE
3  CCCCc1cc2ccccn2c1C(=O)c1ccc(CCCN2CCCCC2)cc1 [compound 42, oxalate]             FALSE
4  CCCc1cc2ccccn2c1C(=O)c1ccc(CCCCN(CC)CCC)cc1 [compound 32, hydrochloride]              TRUE

// query State whether the measured solubility at 5 min reaches 2000 µg/mL, counting equality as reaching it, for CCCN(CC)CCCCc1ccc(C(=O)c2c(CC)cc3ccccn23)cc1 [compound 31, oxalate]
// result TRUE

// query State whether the measured solubility at 5 min reaches 2000 µg/mL, counting equality as reaching it, for CCCN(CC)CCCCc1ccc(C(=O)c2c(C(C)C)cc3ccccn23)cc1 [compound 27, oxalate]
// result TRUE

// query Reported solubility at 5 min at or above 2000 µg/mL? CCCCc1cc2ccccn2c1C(=O)c1ccc(CCCCN(CC)CCC)cc1 [compound 30, hydrochloride]
// result TRUE
